The measurements presented in this section are drawn from ChEMBL document CHEMBL1131368.

target: Endothelin-converting enzyme 1 (Homo sapiens, UniProt P42892); assay: Inhibition of human recombinant Endothelin-converting enzyme 1.
Sequence (P42892 whole entry): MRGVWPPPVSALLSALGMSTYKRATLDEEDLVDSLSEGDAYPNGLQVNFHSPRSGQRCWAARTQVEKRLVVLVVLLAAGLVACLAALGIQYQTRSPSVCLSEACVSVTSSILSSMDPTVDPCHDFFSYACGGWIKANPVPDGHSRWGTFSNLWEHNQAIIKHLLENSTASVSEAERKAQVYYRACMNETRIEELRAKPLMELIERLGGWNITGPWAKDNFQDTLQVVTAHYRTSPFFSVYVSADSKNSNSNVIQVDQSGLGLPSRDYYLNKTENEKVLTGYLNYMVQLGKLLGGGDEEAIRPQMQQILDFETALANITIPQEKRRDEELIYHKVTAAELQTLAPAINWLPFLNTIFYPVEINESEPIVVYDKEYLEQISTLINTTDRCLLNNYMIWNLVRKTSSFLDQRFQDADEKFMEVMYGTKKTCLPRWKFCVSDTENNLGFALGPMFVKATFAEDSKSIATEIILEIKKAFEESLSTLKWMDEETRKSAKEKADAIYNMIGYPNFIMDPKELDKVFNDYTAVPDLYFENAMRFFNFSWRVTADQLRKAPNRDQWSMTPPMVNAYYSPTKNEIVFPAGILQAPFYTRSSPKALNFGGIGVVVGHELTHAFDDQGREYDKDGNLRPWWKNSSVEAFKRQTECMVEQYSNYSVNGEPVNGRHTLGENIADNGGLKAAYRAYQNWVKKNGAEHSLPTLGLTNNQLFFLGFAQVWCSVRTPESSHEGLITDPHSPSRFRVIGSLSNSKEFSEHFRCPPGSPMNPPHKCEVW
Endpoint Label: IC50 (nM)

Previously resolved entries follow.
- COc1ccc(C(=O)O)nc1-c1csc(-c2ccc3ccccc3c2)n1: 1500
- COc1ccc(C(=O)O)nc1-c1csc(CCc2ccccc2)n1: 980
- COc1ccc(C(=O)O)nc1-c1c[nH]cn1: 2400
- Cc1nc(-c2cccc(C(=O)O)n2)cs1: 10000

P. COc1ccc(C(=O)O)nc1-c1nccs1
Q. COc1cc(C(=O)O)nc(-c2cscn2)c1OC
Between P and Q , whose recorded IC50 is greater? Refer to your chosen entry by its label in the reply.
P
(P: 24000 nM, Q: 4300 nM)

a. COc1ccc(C(=O)O)nc1-c1csc(-c2ccccc2)n1
b. CNc1nc(-c2nc(C(=O)O)cc(OC)c2OC)cs1
Between a and b , whose recorded IC50 is greater? Refer to your chosen entry by its label in the reply.
b
